The reported numbers originate from PubChem BioAssay AID1745844.

Recorded TD50 by entry
- Tested on: rodent lifetime carcinogenesis bioassay, tumor incidence TD50
- Procedure text: carcinogenic potency in animals, long-term in vivo studies, CPDB compilation (AID 1745844)
- Test settings: rat; strain MRC-Wistar; males; by gavage; site: prostate; lesion: carcinoma; dosed 74 weeks; study length 74 weeks

CC(O)CN(CC(C)O)N=O (configuration not stated) yielded TD50 of 437 mg/kg/day

`CC(=O)CN(CC(C)=O)N=O` yielded TD50 of 1.53 mg/kg/day

* * *

- System: rodent lifetime carcinogenesis bioassay, tumor incidence TD50
- Procedure text: carcinogenic potency in animals, long-term in vivo studies, CPDB compilation (AID 1745844)
- Test settings: mouse; strain C57BL/6; males; in feed; site: liver; lesion: hepatocellular carcinoma; dosed 52 weeks; study length 69 weeks
Calls of active or inactive are those of the source. No rule for the calls is given here.
Measurement label: TD50

Short answer on rodent lifetime carcinogenesis bioassay, tumor incidence TD50 for `Cc1ccc(NC(N)=O)cc1` , TD50: 722 mg/kg/day (inactive)
